- System: Staphylococcus aureus
- TEST METHOD NOTES: Bactericidal activity against Staphylococcus aureus ATCC 29213 after 24 hrs
- Type: functional
- CONDITION SUMMARY: ATCC 29213, 24 h
Please respond with TRUE when measured MBC is strictly beneath 1 µg/mL, and with FALSE in all other cases.

These recorded examples may help you get a feel for the data.
**Query** Quick check: does O=[N+]([O-])c1ccc(C(c2c[nH]c3ccc(Br)cc23)c2c[nH]c3ccc(Br)cc23)cc1 have MBC under 1 µg/mL?
**Result** FALSE

**Query** Say whether its MBC is strictly beneath 1 µg/mL. Entry: Brc1ccc(C(c2c[nH]c3ccc(Br)cc23)c2c[nH]c3ccc(Br)cc23)cc1
**Result** FALSE

Next:
**Query** # strict comparison: is reported MBC < 1 µg/mL? input = COc1ccc(C(c2c[nH]c3ccc(Br)cc23)c2c[nH]c3ccc(Br)cc23)cc1
**Result** FALSE

**Query** I'd appreciate it if you could check whether CC1(C)CC(c2c[nH]c3ccc(Br)cc23)(c2c[nH]c3ccc(Br)cc23)c2ccc(O)cc2O1 has MBC smaller than 1 µg/mL.
**Result** FALSE

**Query** Record Brc1ccc2[nH]cc(C(c3ccc4ccccc4c3)c3c[nH]c4ccc(Br)cc34)c2c1 : is its MBC strictly below 1 µg/mL?
**Result** FALSE

**Query** Regarding Brc1ccc2[nH]cc(C(c3c[nH]c4ccc(Br)cc34)C3CCCCC3)c2c1 , kindly confirm whether its MBC is beneath 1 µg/mL.
**Result** FALSE

**Query** Determine if Oc1ccc(C(c2c[nH]c3ccc(Br)cc23)c2c[nH]c3ccc(Br)cc23)cc1 shows MBC strictly lower than 1 µg/mL.
**Result** TRUE

**Query** Does the reported MBC of O=C(O)c1cn(C2CC2)c2cc(N3CCNCC3)c(F)cc2c1=O stay below 1 µg/mL?
**Result** TRUE

###

- Tested on: Enterococcus faecalis
- TEST METHOD NOTES: Bactericidal activity against vancomycin-resistant Enterococcus faecalis after 24 hrs
- Assay type: functional
Below, each entry is listed with its recorded MBC.
Give the number first and the unit second.

**Query** Answer briefly: MBC recorded on Enterococcus faecalis for O=[N+]([O-])c1ccc(C(c2c[nH]c3ccc(Br)cc23)c2c[nH]c3ccc(Br)cc23)cc1
**Result** 8 µg/mL

**Query** Answer briefly: MBC recorded on Enterococcus faecalis for CCOc1ccc2c(c1)OC(C)(C)CC2(c1c[nH]c2ccc(Br)cc12)c1c[nH]c2ccc(Br)cc12
**Result** 32 µg/mL

With those in mind, consider the next molecule.
**Query** # lookup: Enterococcus faecalis MBC, key = O=[N+]([O-])c1ccc2[nH]cc(C(c3ccc(O)cc3)c3c[nH]c4ccc([N+](=O)[O-])cc34)c2c1
**Result** 2 µg/mL

###

- System: HeLa
- TEST METHOD NOTES: Cytotoxicity against human HeLa cells after 48 hrs by MTT assay
- Type: functional, cell-based
# note: exactly 30 µM is not below, so it is criterion not met; use criterion met for IC50 strictly under it

For orientation, consider the following solved cases.
**Query** Please let me know if O=S(=O)(c1ccc(F)cc1)n1cc(C(c2ccc(F)cc2)c2cn(S(=O)(=O)c3ccc(F)cc3)c3ccc(Br)cc23)c2cc(Br)ccc21 shows IC50 below 30 µM.
**Result** criterion not met

**Query** Find out if reported IC50 for Fc1ccc(C(c2c[nH]c3ccc(Br)cc23)c2c[nH]c3ccc(Br)cc23)cc1 is less than 30 µM
**Result** criterion met

**Query** Dear reviewer, please state whether COc1ccc(Cn2cc(C(c3ccc(F)cc3)c3cn(Cc4ccc(OC)cc4)c4ccc(Br)cc34)c3cc(Br)ccc32)cc1 has IC50 strictly beneath 30 µM.
**Result** criterion not met

**Query** Strictly below 30 µM in IC50? Cn1cc(C(c2ccc(F)cc2)c2cn(C)c3ccc(Br)cc23)c2cc(Br)ccc21
**Result** criterion met

**Query** Hello, is IC50 of the following molecule strictly smaller than 30 µM? COc1ccc(S(=O)(=O)n2cc(C(c3ccc(F)cc3)c3cn(S(=O)(=O)c4ccc(OC)cc4)c4ccc(Br)cc34)c3cc(Br)ccc32)cc1
**Result** criterion not met

**Query** Input Fc1ccc(Cn2cc(C(c3ccc(F)cc3)c3cn(Cc4ccc(F)cc4)c4ccc(Br)cc34)c3cc(Br)ccc32)cc1 ; condition: IC50 strictly below 30 µM. Does it hold?
**Result** criterion met

**Query** Strictly below 30 µM in IC50? CCCCCn1cc(C(c2ccc(F)cc2)c2cn(CCCCC)c3ccc(Br)cc23)c2cc(Br)ccc21
**Result** criterion met

Now look at this one.
**Query** Does Fc1ccc(C(c2cn(Cc3ccc(Br)cc3)c3ccc(Br)cc23)c2cn(Cc3ccc(Br)cc3)c3ccc(Br)cc23)cc1 have IC50 strictly under 30 µM?
**Result** criterion not met
